Can you tell me IC50 for the items I'm about to list?
target: CypD (Homo sapiens, UniProt P30405, K175I); experiment: PPIase enzyme assay (chymotrypsin-coupled), CypD; conditions: read-out: CypD IC50; PPIase enzyme assay, 20 °C, mean±s.d.
Sequence (P30405 44-207 K175I): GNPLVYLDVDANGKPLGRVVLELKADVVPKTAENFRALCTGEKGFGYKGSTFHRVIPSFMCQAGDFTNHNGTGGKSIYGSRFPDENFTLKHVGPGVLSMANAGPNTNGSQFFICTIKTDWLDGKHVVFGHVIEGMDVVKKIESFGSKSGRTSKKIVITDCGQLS

Input: I would be grateful if you could share the reported IC50 for O=CN1CCCC1 .
Output: > 5000 µM

Input: I would be grateful if you could share the reported IC50 for O=C(NC(=O)c1c(F)cccc1Cl)NC1c2ccccc2-c2ccccc21 [TMN-355, reference compound] .
Output: > 100 µM

Input: I would be grateful if you could share the reported IC50 for Nc1ccc(CNC(=O)NCC(=O)N2CCCC2)cc1 .
Output: > 500 µM
